Readings of cytotoxicity at 70.5 h for the listed compounds
- METHOD_NOTES: Human HepG2 cell viability assay in 384 well format
- Type: toxicity, cell-based
- Design: dose 125 nL, time 70.5 hour; concentration not given beside the values
- TEST_PARAMETERS: HepG2 cells, read-out: Inhibition
Numeric only. Scale: %

Example cases with answers are listed next.
CN(Cc1cccs1)S(=O)(=O)c1ccc(C(F)(F)F)nc1; -20.9
O=C1COc2ccc(S(=O)(=O)NCc3ccccc3)c3c2N1CCC3; 4.09
CC(C)(O)CN1CCN(C(=O)c2ccc3c(c2)COC3)CC1; -5.78
OCC1CCCN1c1cc(NCc2cc3ccccc3o2)ncn1 (stereo unspecified); -18.3
CCSc1ncccc1C(=O)NCc1ccc(N(C)C)cc1; -7.85
CN(Cc1cccnc1)C1CC2(CCN(c3ccccn3)CC2)C1; -8.74
CCOCc1cncc2c1CCN(S(=O)(=O)c1ccc(C)cc1)C2; -2.29
N#Cc1cc2c(=O)n(CC(O)C(F)(F)F)ccc2[nH]c1=O (stereo unspecified); 3.74

### Prompt Give the measured cytotoxicity at 70.5 h of "Cc1ccc(S(=O)(=O)NC[C@H]2OC[C@@H](NCc3ccccc3)[C@@H]2O)cc1" .
### Response -10

### Prompt Give the measured cytotoxicity at 70.5 h of CN(Cc1cccs1)C(=O)CNC1CCc2ncnn2C1 (stereo unspecified) .
### Response -5.9

### Prompt Give the measured cytotoxicity at 70.5 h of CCC1CN(CCNS(C)(=O)=O)c2ccccc2O1 (stereo unspecified) .
### Response -2.49

Sourced from ChEMBL document CHEMBL3507680
